Hey, just so you know, these numbers are from ChEMBL document CHEMBL1137008.

Assay: Cytotoxicity against human Raji cells assessed as cell viability at 10 molar ratio after 48 hrs by trypan blue staining method
Format: cell-based
Details: read-out: Activity
Quick list: viability at 48 h, 10 molar ratio per entry.
parameter: viability at 48 h, 10 molar ratio

C=C(C)[C@@H]1CC[C@]2(C(=O)O)CC[C@]3(C)[C@H](CC[C@@H]4[C@@]5(C)CC[C@H](OC(=O)/C=C/C=C/C)C(C)(C)[C@@H]5CC[C@]43C)[C@@H]12 :: > 80%
C=C(C)[C@@H]1CC[C@]2(C(=O)O)CC[C@]3(C)[C@H](CC[C@@H]4[C@@]5(C)CC[C@H](OC(=O)CCCCCCC/C=C\CCCCCCCC)C(C)(C)[C@@H]5CC[C@]43C)[C@@H]12 :: > 80%
COc1cc(/C=C/C(=O)CC(=O)/C=C/c2ccc(O)c(OC)c2)ccc1O :: > 80%

====

Experiment: Cytotoxicity against human Raji cells assessed as cell viability at 500 molar ratio after 48 hrs by trypan blue staining method
Format: cell-based
Settings: read-out: Activity
# viability at 48 h, 500 molar ratio listing for each entry below
parameter: viability at 48 h, 500 molar ratio

C=C(C)[C@@H]1CC[C@]2(C(=O)O)CC[C@]3(C)[C@H](CC[C@@H]4[C@@]5(C)[C@@H](C(=O)O)[C@H](OC(=O)CC(C)(C)C(=O)O)C(C)(C)[C@@H]5CC[C@]43C)[C@@H]12 :: > 80%
C=C(C)[C@@H]1CC[C@]2(C(=O)O)CC[C@]3(C)[C@H](CC[C@@H]4[C@@]5(C)CC[C@H](O)C(C)(C)[C@@H]5CC[C@]43C)[C@@H]12 [BETULINIC ACID] :: > 80%
C=C(C)[C@@H]1CC[C@]2(C(=O)O)CC[C@]3(C)[C@H](CC[C@@H]4[C@@]5(C)CC[C@H](OC(=O)C[C@@H](C)C(=O)O)C(C)(C)[C@@H]5CC[C@]43C)[C@@H]12 :: > 80%

====

In this section we review reported viability at 48 h, 1000 molar ratio values for a set of compounds.
Experiment: Cytotoxicity against human Raji cells assessed as cell viability at 1000 molar ratio after 48 hrs by trypan blue staining method
Type: cell-based
Conditions: read-out: Activity
parameter: viability at 48 h, 1000 molar ratio (%)

C=C(C)[C@@H]1CC[C@]2(C(=O)O)CC[C@]3(C)[C@H](CC[C@@H]4[C@@]5(C)CC[C@H](O)C(C)(C)[C@@H]5CC[C@]43C)[C@@H]12 [BETULINIC ACID] :: 60
COc1cc(/C=C/C(=O)CC(=O)/C=C/c2ccc(O)c(OC)c2)ccc1O [CURCUMIN] :: 60
C=C(C)[C@@H]1CC[C@]2(C(=O)O)CC[C@]3(C)[C@H](CC[C@@H]4[C@@]5(C)CC[C@H](OC(=O)CCCCCCC/C=C\CCCCCCCC)C(C)(C)[C@@H]5CC[C@]43C)[C@@H]12 :: 60
C=C(C)[C@@H]1CC[C@]2(C(=O)O)CC[C@]3(C)[C@H](CC[C@@H]4[C@@]5(C)C[C@H](OC(=O)CC(C)(C)C(=O)O)C(C)(C)[C@@H]5CC[C@]43C)[C@@H]12 :: 60
C=C(C)[C@@H]1CC[C@]2(C(=O)O)CC[C@]3(C)[C@H](CC[C@@H]4[C@@]5(C)CC[C@H](OC(=O)/C=C/C)C(C)(C)[C@@H]5CC[C@]43C)[C@@H]12 :: 70
